Each record here notes measured pIC50.
Tested on: E. coli BW25113 ΔtolC growth inhibition, OD615
Assay: growth inhibitors of E. coli tolC mutant, dose response, strain BW25113 ΔtolC::kan (AID 617);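 also: growth read after 20 h at 37 °C with compound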
Conceptually, pIC50 converts a concentration in mol/L into minus its log10.

>  <molecule>
CCOC(=O)C1=C(C)NC(SCC(=O)Nc2cc(C)on2)=C(C#N)C1c1cccs1 (stereo not given)

>  <pIC50>
4.96

$$$$
>  <molecule>
CC(C)N(Cc1nc(-c2ccc(Cl)cc2)no1)C(=O)CCC1CCCC1

>  <pIC50>
4.81

$$$$
>  <molecule>
Cc1cc(Cl)cc(C)c1OCCCCn1ccnc1

>  <pIC50>
4.83

$$$$
>  <molecule>
Cc1cc(NC(=O)Cn2nnc3sc4c(c3c2=O)CCC(C(C)(C)C)C4)no1 (stereo not given)

>  <pIC50>
5.11

$$$$
>  <molecule>
CCOC(=O)CCSc1nc2c(c(C(F)(F)F)c1C#N)CCC2

>  <pIC50>
4.86

$$$$
>  <molecule>
CCOC(=O)c1cc(CC)sc1NC(=O)Cc1ccsc1

>  <pIC50>
4.99

$$$$

Moving on to another molecule below.
Prompt: Please provide the recorded pIC50 for Cc1ccccc1S(=O)(=O)Cc1ccc(C(=O)N2CCN(c3cccc(C)c3C)CC2)o1 , tested on E. coli BW25113 ΔtolC growth inhibition, OD615.
Response: 4.51

---

Tested on: E. coli BW25113 ΔtolC growth inhibition, OD615
Test: growth inhibitors of E. coli tolC mutant, dose response, strain BW25113 ΔtolC::kan (AID 617);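 also: growth read after 20 h at 37 °C with compound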
pIC50: −log10 of the molar value.
Short version: pIC50 at least 5 is T, less is F.

Example cases with answers are listed next.
>  <compound>
CC(C)(C)c1ccc(C(=O)CCCSC2=C(C#N)C(c3ccco3)C3=C(CCCC3=O)N2)cc1 (stereo not given)

>  <classification>
T

$$$$
>  <compound>
O=c1cc(O)c2c(=O)n3c4c(cccc4c2o1)CCC3

>  <classification>
T

$$$$

Prompt: Does CCCCCSc1nnc(-c2cc(Br)ccc2N)c(=O)[nH]1 have a reported pIC50 of at least 5?
Response: T

Prompt: Entry to check: CCc1nc(N2CCCCC2)c2oc3ccccc3c2n1
Response: F

Prompt: Entry to check: Cc1ccc(Cl)cc1N1CCN(C(=O)c2ccc(NS(=O)(=O)c3c(C)noc3C)cc2)CC1
Response: F

Prompt: Entry to check: CCOC(=O)c1c(C)c(C(=O)Nc2cc(OC)ccc2OC)c(C)n1CC
Response: F

---

Tested on: E. coli BW25113 ΔtolC growth inhibition, OD615
Assay: growth inhibitors of E. coli tolC mutant, dose response, strain BW25113 ΔtolC::kan (AID 617);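 also: growth read after 20 h at 37 °C with compound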
value.kind: pIC50
Conceptually, pIC50 converts a concentration in mol/L into minus its log10.

Some solved entries appear below for comparison.
>  <compound>
Cc1ccccc1-c1nc(CN2CCC(C(=O)NCCC3=CCCCC3)CC2)c(C)o1

>  <val>
4.86

$$$$
>  <compound>
CCn1c2ccccc2c2cc(NC(=O)c3ccco3)ccc21

>  <val>
5.05

$$$$
>  <compound>
Clc1ccc(OCc2nn3c(C4CCCCC4)nnc3s2)cc1

>  <val>
5.01

$$$$

Prompt: Quick one: pIC50 of Cc1cc(C)cc(Nc2cc(=O)n(C3CCCCC3)c(=O)[nH]2)c1 ?
Response: 5.55

Prompt: Entry to check: Cc1[nH]n2c(=O)cc(C(C)(C)C)nc2c1-c1ccccc1
Response: 5.81

Prompt: Entry to check: O=C(COc1ccccc1Br)c1ccc(O)cc1O
Response: 4.88

Prompt: Entry to check: COc1cccc(-c2cc(C(=O)N3CCc4ccccc4C3)no2)c1
Response: 5.06

---

Each record here notes measured IC50.
Test system: E. coli BW25113 ΔtolC growth inhibition, OD615
Assay: growth inhibitors of E. coli tolC mutant, dose response, strain BW25113 ΔtolC::kan (AID 617);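 also: growth read after 20 h at 37 °C with compound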

Some solved entries appear below for comparison.
>  <compound>
N#CCSc1nc2c(c(C3CC=CCC3)c1C#N)CCC2 (stereo unspecified)

>  <IC50>
12.9 µM

$$$$
>  <compound>
CC(C)Cc1cc(C(=O)Nc2cc(Br)ccc2O)no1

>  <IC50>
5.72 µM

$$$$
>  <compound>
CC(C)(C)n1nnnc1C(c1cccs1)N1CCCc2ccccc21 (stereo unspecified)

>  <IC50>
13.6 µM

$$$$
>  <compound>
COc1cc(-c2nc(Cc3ccccc3Cl)no2)cc(OC)c1OC

>  <IC50>
11.5 µM

$$$$

Prompt: Quick one: IC50 of CCOC(=O)c1ccccc1NC(=O)C(C)Oc1ccccc1 (stereo unspecified) ?
Response: 30.3 µM

Prompt: Entry to check: Cn1c(=O)n(CCCOc2ccc(Cl)cc2)c2ccccc21
Response: 15.7 µM

Prompt: Entry to check: CCCCn1nc(NC(=O)c2cccs2)c2cc3ccccc3nc21
Response: 8.28 µM

Prompt: Entry to check: COc1ccccc1-c1noc(CCC(=O)Nc2cccc(C(F)(F)F)c2)n1
Response: 15.9 µM

Prompt: Entry to check: CC(O)c1c(OCc2ccccc2)ncnc1OCc1ccccc1 (stereo unspecified)
Response: 10.7 µM

Prompt: Entry to check: O=C(CSc1nnc(Cc2cccs2)n1Cc1ccco1)Nc1ccc(Br)cc1
Response: 5.74 µM

Prompt: Entry to check: O=C(Nc1ccc(Cl)c(Cl)c1)N1CCSC1c1ccco1 (stereo unspecified)
Response: 5.12 µM

---

System: E. coli BW25113 ΔtolC growth inhibition, OD615
Assay: growth inhibitors of E. coli tolC mutant, dose response, strain BW25113 ΔtolC::kan (AID 617);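 also: growth read after 20 h at 37 °C with compound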
Each record here notes measured pIC50.
Conceptually, pIC50 converts a concentration in mol/L into minus its log10.

>  <compound>
CCOc1ccc(S(=O)(=O)Nc2cc(Cl)ccc2O)cc1

>  <value.kind>
pIC50

>  <val>
5.04

$$$$
>  <compound>
Cc1c(C(=O)N2CCCCC2)oc2ccc(S(=O)(=O)N3CC(C)CC(C)C3)cc12 (stereo unspecified)

>  <value.kind>
pIC50

>  <val>
5.04

$$$$
>  <compound>
Cc1cc2c(cc(C(=O)OCC(=O)NCc3cccs3)n2C(C)C)o1

>  <value.kind>
pIC50

>  <val>
4.60

$$$$

Moving on to another compound below.
Prompt: Quick one: pIC50 of Cc1ccc(S(=O)(=O)Nc2cccc3ncccc23)s1 ?
Response: 5.78

---

Each record here notes measured pIC50.
Tested on: E. coli BW25113 ΔtolC growth inhibition, OD615
Test: growth inhibitors of E. coli tolC mutant, dose response, strain BW25113 ΔtolC::kan (AID 617);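 also: growth read after 20 h at 37 °C with compound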
Conceptually, pIC50 converts a concentration in mol/L into minus its log10.

Some solved entries appear below for comparison.
>  <compound>
COc1ccc2[nH]c3c(=O)n(CCCCC(=O)NCCN4CCCC4)c(=S)[nH]c3c2c1

>  <experimental.system>
E. coli BW25113 ΔtolC growth inhibition, OD615

>  <pIC50>
4.76

$$$$
>  <compound>
CC(=O)c1ccccc1OCC(O)CN1CCN(C(c2ccccc2)c2ccccc2)CC1 (stereo not given)

>  <experimental.system>
E. coli BW25113 ΔtolC growth inhibition, OD615

>  <pIC50>
4.85

$$$$

Prompt: Quick one: pIC50 of NC1=NC(c2cn(-c3ccccc3)nc2-c2cccs2)n2c(nc3ccccc32)N1 (stereo not given) ?
Response: 4.79

Prompt: Entry to check: CS(=O)(=O)N(Cc1nc2sc3c(c2c(=O)[nH]1)CCCC3)C1CCCCC1
Response: 5.09

Prompt: Entry to check: COc1ccc(-c2cnc(SCC(=O)Nc3ccc4c(c3)OCO4)n2Cc2ccco2)cc1
Response: 4.96

Prompt: Entry to check: COc1ccc(S(=O)(=O)C(C#N)c2nc3ccccc3nc2N2CCCC(C)C2)cc1 (stereo not given)
Response: 5.16

Prompt: Entry to check: O=C(CNCCC1=CCCCC1)Nc1ccccc1N1CCCCC1
Response: 4.95

Prompt: Entry to check: Cc1ccc(OCc2nc(C#N)c(NCc3ccc4c(c3)OCO4)o2)cc1
Response: 5.22

Prompt: Entry to check: CCCc1nc2ccccc2c(=O)n1NC(=O)c1c(O)c2ccccc2[nH]c1=O
Response: 5.24

Prompt: Entry to check: COc1ccc(C2CC(c3ccccc3)n3nc(NC(=O)c4cccs4)nc3N2)cc1 (stereo not given)
Response: 5.09

---

Test system: E. coli BW25113 ΔtolC growth inhibition, OD615
Test: growth inhibitors of E. coli tolC mutant, dose response, strain BW25113 ΔtolC::kan (AID 617);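 also: growth read after 20 h at 37 °C with compound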
value.kind: pIC50
Conceptually, pIC50 converts a concentration in mol/L into minus its log10.

>  <molecule>
Cc1cccc(N2CCN(C(=O)C34CC5CC(CC(C5)C3)C4)CC2)c1C

>  <pIC50>
4.71

$$$$
>  <molecule>
COc1cc(Cc2cnc(N)nc2N)cc(OC)c1OC

>  <pIC50>
6.47

$$$$
>  <molecule>
Cn1c(C(=O)N2CCN(c3cccc(C(F)(F)F)c3)CC2)cc2sccc21

>  <pIC50>
4.81

$$$$
>  <molecule>
c1ccc(CC2CCN(c3nnnn3-c3ccccc3)CC2)cc1

>  <pIC50>
5.00

$$$$
>  <molecule>
CCOC(=O)c1cccc(NC(=O)Nc2cc(OC)ccc2OC)c1

>  <pIC50>
4.69

$$$$
>  <molecule>
Cc1ccc(S(=O)(=O)c2nc(Nc3nccs3)sc2Cl)cc1

>  <pIC50>
5.61

$$$$
>  <molecule>
CCCCn1c(NC(=O)c2ccccc2)c(C#N)c2nc3ccccc3nc21

>  <pIC50>
5.55

$$$$
>  <molecule>
CN1CCCN(C(=O)Cc2c(Cl)cccc2Cl)c2nc3ccccc3nc21

>  <pIC50>
4.88

$$$$
>  <molecule>
COc1ccc(CNC(=O)c2cc(-c3ccccc3OC)on2)cc1

>  <pIC50>
4.25

$$$$
>  <molecule>
CCOC(=O)c1ccc(NC(=O)CCc2nc(-c3ccccc3Cl)no2)cc1

>  <pIC50>
4.98

$$$$

Moving on to another molecule below.
Prompt: Quick one: pIC50 of CN(c1ccccc1)C(c1ccc(F)cc1)c1nnnn1C1CCCC1 (stereo unspecified) ?
Response: 4.95

Source of measurements: PubChem BioAssay AID617
